Data provenance: patent CN107840891A

Entries and their koff values follow.
- Tested target: MSLN抗原 (Mesothelin, MSLN-Biotin) (human) (UniProt Q13421)
- Protocol summary: BLI (Octet RED96), MSLN-Biotin on AR2G sensor, TG1 periplasmic scFv as analyte
Reported metric: koff (s⁻¹)

* 2F9 (scFv, V domains shown) VH: QVQLQQPGAELVKPGASMKLSCKASGYTFTSYWMHWVKQRPGQGLEWIGGIEQNSSETIYYEKFKSKATLTVDKSSSTAYMQLSSLTSEDSAVYYCAIIITPVVPKFDYWGQGTTLTVSS VL: DIVMTQSHQFMSTSVGDRVSVTCKASHDVGTSVAWYQQKPGQSPKLLIYWASTRHTGVPDRFTGSGSGTDFTLTISNVQSEDLADYFCQQYSSYPLTFGAGTKLELK | 0.00166
* 9F5 (scFv, V domains shown) VH: QVQLQQPGAELVKPGASMKLSCKASGYTFTSYWMHWVKQRPGQGLEWIGMIHPNSDNTIYYEKFKSKATLTVDKSSSTAYMQLSSLTSEDSAVYYCAIIITPVVPKFDYWGQGTTLTVSS VL: DIVMTQSHQFMSTSVGDRVSVTCKASHDVGTSVAWYQQKPGQSPKLLIYQASKKEKGVPDRFTGSGSGTDFTLTISNVQSEDLADYFCQQYSSYPLTFGAGTKLELK | 0.000294
* 7D5 (scFv, V domains shown) VH: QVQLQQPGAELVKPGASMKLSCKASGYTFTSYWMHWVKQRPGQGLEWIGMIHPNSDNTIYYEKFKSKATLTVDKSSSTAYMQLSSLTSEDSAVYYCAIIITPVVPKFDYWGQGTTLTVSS VL: DIVMTQSHQFMSTSVGDRVSVTCKASHDVGTSVAWYQQKPGQSPKLLIYKASNNKKGVPDRFTGSGSGTDFTLTISNVQSEDLADYFCQQYSSYPLTFGAGTKLELK | 0.000395
* 2D9 (scFv, V domains shown) VH: QVQLQQPGAELVKPGASMKLSCKASGYTFTSYWMHWVKQRPGQGLEWIGMIHAQSDNTIYYEKFKSKATLTVDKSSSTAYMQLSSLTSEDSAVYYCAIIITPVVPKFDYWGQGTTLTVSS VL: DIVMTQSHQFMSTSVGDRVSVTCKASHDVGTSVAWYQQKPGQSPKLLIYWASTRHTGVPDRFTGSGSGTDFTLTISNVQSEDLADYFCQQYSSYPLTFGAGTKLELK | 0.000217
* 5F7 (scFv, V domains shown) VH: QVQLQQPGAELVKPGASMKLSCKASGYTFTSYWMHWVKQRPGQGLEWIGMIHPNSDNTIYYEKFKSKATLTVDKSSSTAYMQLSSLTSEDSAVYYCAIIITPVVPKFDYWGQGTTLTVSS VL: DIVMTQSHQFMSTSVGDRVSVTCKASHDVGTSVAWYQQKPGQSPKLLIYWASTRHTGVPDRFTGSGSGTDFTLTISNVQSEDLADYFCQQYASYPLSFGAGTKLELK | 0.000613
